# experimental.system: human 5-HT2C-INI (Homo sapiens, UniProt P28335)
# method.summary: Calcium flux (FLIPR) assay, human 5-HT2C-INI stably expressed in HEK-293 (Flp-In-293) cells
# measurement.conditions: EC50, nM 5-HT2C, human 5-HT2C-INI in HEK-293 cells, FLIPR; NA = no activity at 10 μM
Label criterion met when EC50 < 400 nM; otherwise criterion not met.

>  <molecule>
NCC1CC1c1c(OCCF)ccc(F)c1F (single isomer, unassigned; (-)) [(−)-Example 47]

>  <category>
criterion not met

$$$$
>  <molecule>
CCCOc1ccc(Cl)cc1C1CC1CN (single isomer, unassigned; (-)) [(−)-Example 12]

>  <category>
criterion not met

$$$$
>  <molecule>
CCCOc1ccc(F)c(F)c1C1CC1CN (single isomer, unassigned; (-)) [(−)-Example 48]

>  <category>
criterion met

$$$$
>  <molecule>
NCC1CC1c1c(OCCF)ccc(Cl)c1F (single isomer, unassigned; (+)) [(+)-Example 31]

>  <category>
criterion met

$$$$
>  <molecule>
CCOc1cc(F)c(F)cc1C1CC1CN (single isomer, unassigned; (-)) [(−)-Example 41]

>  <category>
criterion met

$$$$
>  <molecule>
C=CCOc1ccc(Cl)c(F)c1C1CC1CN (single isomer, unassigned; (+)) [(+)-Example 32]

>  <category>
criterion met

$$$$
>  <molecule>
CC(C)Oc1ccc(Cl)cc1C1CC1CN (single isomer, unassigned; (+)) [(+)-Example 14]

>  <category>
criterion met

$$$$

* * *

# experimental.system: human 5-HT2C-INI (Homo sapiens, UniProt P28335)
# Sequence (P28335 33-458): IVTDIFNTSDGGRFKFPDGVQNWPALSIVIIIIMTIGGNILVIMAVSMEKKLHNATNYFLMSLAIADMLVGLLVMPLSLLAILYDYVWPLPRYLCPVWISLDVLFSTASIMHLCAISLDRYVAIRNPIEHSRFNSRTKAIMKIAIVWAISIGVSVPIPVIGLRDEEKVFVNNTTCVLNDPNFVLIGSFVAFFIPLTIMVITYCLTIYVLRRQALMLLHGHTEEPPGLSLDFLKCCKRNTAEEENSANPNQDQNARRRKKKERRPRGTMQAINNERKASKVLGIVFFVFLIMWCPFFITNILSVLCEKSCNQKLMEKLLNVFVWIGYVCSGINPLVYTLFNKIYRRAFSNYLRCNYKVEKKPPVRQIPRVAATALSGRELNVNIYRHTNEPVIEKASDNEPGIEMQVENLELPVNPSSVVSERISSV
# method.summary: Calcium flux (FLIPR) assay, human 5-HT2C-INI stably expressed in HEK-293 (Flp-In-293) cells
# measurement.conditions: human 5-HT2C-INI in HEK-293 cells, FLIPR; normalized to 5-HT

>  <compound>
CCCOc1ccc(F)cc1C1CC1CN (single isomer, unassigned; (+)) [(+)-Example 7]

>  <Emax, % 5-HT 5-HT2C>
(88%) % 5-HT

$$$$
>  <compound>
CSCCOc1ccc(Cl)cc1C1CC1CN (single isomer, unassigned; (+)) [(+)-Example 18]

>  <Emax, % 5-HT 5-HT2C>
(24%) % 5-HT

$$$$
>  <compound>
C=CCOc1cc(F)c(Cl)cc1C1CC1CN (single isomer, unassigned; (+)) [(+)-Example 5]

>  <Emax, % 5-HT 5-HT2C>
(87%) % 5-HT

$$$$
>  <compound>
CCCOc1cc(F)c(F)cc1C1CC1CN (single isomer, unassigned; (+)) [(+)-Example 43]

>  <Emax, % 5-HT 5-HT2C>
(93%) % 5-HT

$$$$
>  <compound>
NCC1CC1c1cc(Cl)c(Cl)cc1OCCF (single isomer, unassigned; (+)) [(+)-Example 34]

>  <Emax, % 5-HT 5-HT2C>
(87%) % 5-HT

$$$$
>  <compound>
COc1ccc(F)c(Cl)c1C1CC1CN (single isomer, unassigned; (+)) [(+)-Example 50]

>  <Emax, % 5-HT 5-HT2C>
(88%) % 5-HT

$$$$
>  <compound>
NCC1CC1c1cc(Cl)ccc1OCCCF (single isomer, unassigned; (-)) [(−)-Example 20]

>  <Emax, % 5-HT 5-HT2C>
(24%) % 5-HT

$$$$
>  <compound>
C=CCOc1ccc(Cl)c(Cl)c1C1CC1CN (single isomer, unassigned; (-)) [(−)-Example 39]

>  <Emax, % 5-HT 5-HT2C>
(93%) % 5-HT

$$$$

src = patent US10407381B2
